// provenance: paper PMC10629583

Lab note: Ki readings collected with UniProt:P28222 for the following compounds.
Sequence (P28222 whole entry): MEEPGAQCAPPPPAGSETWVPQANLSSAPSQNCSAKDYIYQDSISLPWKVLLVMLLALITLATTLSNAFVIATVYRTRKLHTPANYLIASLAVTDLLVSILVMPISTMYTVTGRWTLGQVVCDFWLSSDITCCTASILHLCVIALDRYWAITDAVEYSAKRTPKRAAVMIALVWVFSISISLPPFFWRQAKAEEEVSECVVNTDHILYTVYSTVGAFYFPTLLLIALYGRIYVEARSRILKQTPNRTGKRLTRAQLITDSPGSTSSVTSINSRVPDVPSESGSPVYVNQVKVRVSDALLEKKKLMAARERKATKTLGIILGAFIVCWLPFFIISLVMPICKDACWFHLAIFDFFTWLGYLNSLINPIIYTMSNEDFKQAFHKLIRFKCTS

[ask] Kindly state the measured Ki obtained for Cn1cnc([N+](=O)[O-])c1Sc1nnc2n(CC3CC3)c(=O)c3sc(Cl)cc3n12 [Allopole] with UniProt:P28222.
[reply] > 10 µM

[ask] Okay, and O=c1c2sc(Cl)cc2n2c(=S)[nH]nc2n1CC1CC1 [Allopole-A] ?
[reply] > 10 µM

====

Lab note: Ki readings collected with 5-HT1D (Homo sapiens) for the following compounds.
Sequence (P28221 whole entry): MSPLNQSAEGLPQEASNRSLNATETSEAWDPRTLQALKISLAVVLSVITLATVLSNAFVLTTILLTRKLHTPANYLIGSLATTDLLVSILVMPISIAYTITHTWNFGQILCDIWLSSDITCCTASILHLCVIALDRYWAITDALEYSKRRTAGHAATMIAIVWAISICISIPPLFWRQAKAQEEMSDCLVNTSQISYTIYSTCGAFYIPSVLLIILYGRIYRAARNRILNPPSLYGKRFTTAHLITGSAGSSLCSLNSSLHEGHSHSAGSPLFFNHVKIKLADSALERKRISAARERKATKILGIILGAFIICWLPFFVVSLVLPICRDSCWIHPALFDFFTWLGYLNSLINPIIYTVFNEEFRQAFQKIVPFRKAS

[ask] Kindly state the measured Ki obtained for O=c1c2sc(Cl)cc2n2c(=S)[nH]nc2n1CC1CC1 with 5-HT1D (Homo sapiens).
[reply] > 10 µM

[ask] Okay, and Cn1cnc([N+](=O)[O-])c1Sc1nnc2n(CC3CC3)c(=O)c3sc(Cl)cc3n12 ?
[reply] > 10 µM
